Provide the recorded cell viability for the entries that follow.
system: Calu-3; assay: cell viability relative to DMSO; higher = less toxic; conditions: 72 h; 1000 nM
Kindly provide the numeric value in % only, without the unit symbol.

Find the measured cell viability of CO[C@H]1C[C@H](O[C@@H]2/C(C)=C/C[C@@H]3C[C@@H](C[C@]4(CC[C@H](C)[C@@H](C5CCCCC5)O4)O3)OC(=O)[C@@H]3C=C(C)/C(=N/O)[C@H]4OC/C(=C\C=C\[C@@H]2C)[C@]43O)O[C@@H](C)[C@@H]1O with Calu-3 as test system. 104

Provide cell viability, recorded with Calu-3, of CCCCCCCCCCCC[N+](C)(C)CCOc1ccccc1 102

With Calu-3 as the test system, provide measured cell viability for this molecule: O=c1sn(-c2cccc3ccccc23)c(=O)n1Cc1ccccc1 99

Look up Calu-3 data: cell viability of CCn1c(-c2nonc2N)nc2cncc(C(=O)N3CC[C@H](N)C3)c21 , then report it. 127

Send back Calu-3 cell viability of Nc1cc(F)ccc1NC(=O)/C=C/c1cnn(C/C=C/c2ccccc2)c1 only. 87.6

# return cell viability of CCn1cnc(C(=O)NC)c1C(=O)NC (system: Calu-3) 102

Fill: cell viability (Calu-3) for this molecule O=C(c1cccc(Br)c1)N1CCC(N2CCCC2)CC1 92.6

Report measured cell viability on Calu-3; entry: O=C(c1ccc(C(=O)N2CCC(N3CCCC3)CC2)c(Nc2ccccc2)c1)N1CCC(N2CCCC2)CC1 93.4

* * *

system: HepG2; assay: cell viability relative to DMSO; higher = less toxic; conditions: 72 h; 10 nM
I'd appreciate it if you could supply cell viability values for the items below.
Report the value in % with no unit label.

Report cell viability from HepG2 testing of CCCCCCCCCCCC(=O)O 106

Provide cell viability, system HepG2, entry O=P1(N(CCCl)CCCl)NCCCO1 (stereo not drawn) [cyclophosphamide] 98.9

Determine reported cell viability for Nc1nc(=O)c2nc(CNc3ccc(C(=O)N[C@@H](CCC(=O)O)C(=O)O)cc3)cnc2[nH]1 ; test system: HepG2. 101

Identify measured cell viability obtained with HepG2 for C[C@@]1(c2cc(-c3cncnc3)c(F)cc2F)CCSC(N)=N1 . 112

Report cell viability on HepG2 for this entry: NC[C@@H]1CC[C@@H](N)[C@@H](O[C@H]2[C@H](O)[C@@H](O[C@H]3O[C@H](CO)[C@@H](O)[C@H](N)[C@H]3O)[C@H](N)C[C@@H]2N)O1 101

Recall the reported cell viability of O=C(NCCN1CCCCC1)c1ccc(I)cc1 [N-[2-(piperidinylamino)ethyl]-4-iodobenzamide] on HepG2 and write it down. 91.8

Please report the measured cell viability for CNCCC(Oc1ccccc1OC)c1ccccc1 (stereo not drawn) tested on HepG2. 105

Specify cell viability for Cn1c(=O)n(-c2ccc(C(C)(C)C#N)cc2)c2c3cc(-c4cnc5ccccc5c4)ccc3ncc21 , system HepG2. 110

* * *

Field: cell viability. Provide a value for each of the compounds that follow.
test system: U2OS; experiment: cell viability relative to DMSO; higher = less toxic; details: 72 h; 1 nM
Expressed in %, but write only the number.

Provide cell viability value for the following compound: COc1cc2c(cc1OC)-c1c/c(=N\c3c(C)cc(C)cc3C)n(C)c(=O)n1CC2 96.8

For the compound CNNCc1ccc(C(=O)NC(C)C)cc1 , give its reported cell viability. 96

Provide cell viability value for the following compound: CC(=O)OC[C@H]1O[C@@H]([S-])[C@H](OC(C)=O)[C@@H](OC(C)=O)[C@@H]1OC(C)=O.CCP(CC)CC.[Au+] 101

State its cell viability: CCCCn1c(=O)c2[nH]c(C34CC5CC(CC3C5)C4)nc2n(CCCO)c1=O 98.5

Determine from records and report cell viability for COc1ccc(S(=O)(=O)N2c3ccc(Cl)cc3[C@](O)(c3ccccc3Cl)[C@@H]2C(=O)N2CCC[C@H]2C(N)=O)cc1OC 103

Consider the compound O=C(Nc1cccc(C(F)(F)F)c1)Nc1ccc(Br)cc1-c1nnn[nH]1 . State its measured cell viability. 99.6

Entry Cc1ccccc1C(=O)c1ccc(Nc2ccc(Br)cc2N)cc1Cl needs its cell viability filled in; supply it. 98.5

Return reported cell viability. Input compound: C[C@@H]1CN(Cc2ccc(F)cc2)[C@@H](C)CN1C(=O)c1cc2c(C(=O)C(=O)N(C)C)cn(C)c2cc1Cl 106
